Molecular target: T1, recombinant human RANTES (huRANTES, Peprotech) (human, UniProt P13501 24-91)
T1 sequence: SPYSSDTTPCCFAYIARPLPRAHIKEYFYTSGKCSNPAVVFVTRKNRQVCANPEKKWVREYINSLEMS
Test: cell-based or functional assay
MEASURED_ATTRIBUTE: Chemotaxis IC50 (nM); L1.2 cells expressing hCCR5, 1 nM huRANTES; scFv format

BINDER: E6 scFv (scFv) QVQLVQSGAEVEKPGASVKVSCRVSGYPLTEIAIHWVRQAPGKGLEWMGSFEPEDAEAIYAQRFQGRVTMTEETSANTAYMELSSLRSEDTAVYFCATDPYYASSGSNYMEVWGRGTLVTVSSNFMLTQPHSVSESPGKTVTISCTGSGGSISSNYVQWYRQRPGSAPSTVIYEDDQRPSGVPDRISGSIDSSSNSASLTISGLTTEDEADYYCHSYDGNNRWVFGGGTKLTVL
TEST_VALUE: 72 nM
--
BINDER: G2 scFv (scFv) QVQLVQSGAEVKKPGASVKVSCRASGYALTELSIHWVRQAPGKGLEWMGGFDPEDGETIYAQNFQGRVIMTEDTSTDTAYMELSSLKSEDTAVYYCATDLTGSRDSWGQGTLVTVSSQSVLTQPASVSGSPGQSITISCTGSRSDIGYYNYVSWYQQHPGKVPKLIIYDVTERPSGVSDRFSGSKSANTASLTISGLQAEDEADYYCSSFSSGDTFVVFGGGTKLTVL
TEST_VALUE: 62 nM
--
BINDER: 6A8 scFv (scFv) QVQLVQSGAEVKKPGASVKVSCKVSGYTLNDFAMHWVRQAPGKGLEWMGGYVPEDGDTIYAQKFQGRVTMTEDTSTDTAYMELSSLRSEDTAVYYCATDPLYPPGLQPWGQGTTVTVSSSYVLTQPPSVSVAPGQTARITCGGNNIESKSVHWYQQKPGQAPVLVVYDDSDRPSGIPERFSGSNSGNTATLTISRVEAGDEADYYCQVWDSNTDHWVFGGGTKVTVL
TEST_VALUE: 0.94 nM
--
BINDER: H6 scFv (scFv) QVQLVQSGAEVKRPGASVKVSCKVSGNTLSKQSMHWVRQAPGKGFEWMGSSNPEDDETLYAKKFQGRVTMTEDTSTDTAYLELSSLRSEDTAVYYCATDSQGFYYYYGMDVWGQGTLVTVSSQSVLTQPPSVSGAPGQRVTISCTGSSSNIGADYDVHWYQQLPGTVPKLLIYDNINRPSGVPDRFSGSKSGTSASLAITGLQAEDEADYYCQSYDSSLSGVLFGGGTKVTVL
TEST_VALUE: 25 nM
--
BINDER: H11 scFv (scFv) QVQLVQSGAEVKKPGSSVKVSCKASGGISDNYALSWVRQAPGQGLEWMGGFIPLVDTTNYAQRFQGRLTITADDSMSTVYMELRSLRSDDTAMYYCAREQVAVGPGPTSDRGPDGLDVWGQGTMVTVSSQSVLTQPSSVSGAPGHRVTISCTGSNSNLGADYDVHWYQQLPGSAPKLLIYDNNIRPSGVPARFSGSKSGTSASLAITGLQAEDEADYYCQSYDTGLTSSDVIFGGGTKLTVL
TEST_VALUE: 4.3 nM
